Data provenance: paper PMC7826789

Task for the reader: assign each of the following compounds its reported Percent Control.
Test system: EGFR(S752-I759del);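 note: KINOMEscan scanMAX binding as percent activity remaining versus control; lower means stronger binding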
Assay setup: Compound Concentration (nM):1000
Please respond with the number in % and leave the unit unwritten.

Req: Which Percent Control reading was recorded for the compound CN1CCN(C(=O)c2ccc(NC(=O)Nc3ccc(N(C)c4ccnc(Nc5ccc(CS(C)(=O)=O)cc5)n4)cc3)cc2)CC1.Cl [GW830263A] ?
Resp: 100

Req: Which Percent Control reading was recorded for the compound COc1cc2ncnc(Nc3ccc4c(cnn4Cc4ccccc4)c3)c2cc1OC.Cl [GW282449A] ?
Resp: 78

Req: Which Percent Control reading was recorded for the compound COc1ccc2[nH]c3c4[nH]c5ccc(OC)cc5c4c4c(c3c2c1)C(=O)NC4=O [GW296115X] ?
Resp: 68

Req: Which Percent Control reading was recorded for the compound CC1=C(C(=O)Nc2ccc3[nH]ncc3c2)C(c2ccc(Cl)c(Cl)c2)CC(=O)N1 (stereo not shown) [GSK299115A] ?
Resp: 89

Req: Which Percent Control reading was recorded for the compound CCn1c(-c2nonc2N)nc2c(C#CC(C)(C)O)nc(OCCNC)cc21.Cl ?
Resp: 100

Req: Which Percent Control reading was recorded for the compound CC(C)COC(=O)c1ccc2c(c1)/C(=C/Nc1ccc(S(N)(=O)=O)cc1)C(=O)N2 [GW416981X] ?
Resp: 100

Req: Which Percent Control reading was recorded for the compound COc1cc2ncn(-c3cc(O[C@H](C)c4ccccc4Cl)c(C(N)=O)s3)c2cc1OC [GSK237701A] ?
Resp: 100

Req: Which Percent Control reading was recorded for the compound NS(=O)(=O)c1ccc(N/N=C2\C(=O)Nc3ccc(C(=O)NCCc4c[nH]cn4)cc32)cc1 [GW300660X] ?
Resp: 97

Req: Which Percent Control reading was recorded for the compound Cl.O=C(Nc1ccc(Oc2ccc3[nH]c(NC(=O)c4ccccc4)nc3c2)cc1)Nc1cc(C(F)(F)F)ccc1F [GW709042A] ?
Resp: 87

Req: Which Percent Control reading was recorded for the compound NS(=O)(=O)c1ccc(N/N=C2\C(=O)Nc3ccc(Cl)cc32)cc1 [GW280670X] ?
Resp: 87

Req: Which Percent Control reading was recorded for the compound COc1ccc(COc2ccc(Cc3cnc(N)nc3N)cc2OC)cc1 [GW632580X] ?
Resp: 85

Req: Which Percent Control reading was recorded for the compound COc1cc(C)c(N(C)C(=O)CN(C)C)cc1Nc1nc(Nc2cccc(F)c2C(N)=O)c2cc[nH]c2n1 ?
Resp: 100

Req: Which Percent Control reading was recorded for the compound C/C(Nc1ccc(S(N)(=O)=O)cc1)=C1/C(=O)Nc2ccccc21 [GW335962X] ?
Resp: 100

Req: Which Percent Control reading was recorded for the compound O=C1Nc2ccc(C(=O)c3ccco3)cc2C1=Cc1cc(Cl)c(O)c(Cl)c1 [GW406108X] ?
Resp: 81

Req: Which Percent Control reading was recorded for the compound NS(=O)(=O)c1ccc(Nc2ncc(-c3ccccc3)o2)cc1 [GW572399X] ?
Resp: 100

Req: Which Percent Control reading was recorded for the compound CCS(=O)(=O)c1ccc(OC)c(Nc2ncc(-c3cccc(F)c3)o2)c1 [GW621970X] ?
Resp: 73

Req: Which Percent Control reading was recorded for the compound Cl.O=C(Nc1ccc(Oc2ccc3[nH]c(NC(=O)c4ccco4)nc3c2)cc1)Nc1cc(C(F)(F)F)ccc1F [GW683134A] ?
Resp: 97

Req: Which Percent Control reading was recorded for the compound COc1cccc(-c2c[nH]c3c(N/N=C/c4ccncc4)ncnc23)c1 [GW814408X] ?
Resp: 41

Req: Which Percent Control reading was recorded for the compound COc1ccc2cc(-c3c(-c4ccncc4)nc(-c4ccc(S(C)(=O)=O)cc4C)n3C)ccc2c1 ?
Resp: 93
